target.desc: D(4) dopamine receptor (Homo sapiens, UniProt P21917)
Sequence (P21917 whole entry): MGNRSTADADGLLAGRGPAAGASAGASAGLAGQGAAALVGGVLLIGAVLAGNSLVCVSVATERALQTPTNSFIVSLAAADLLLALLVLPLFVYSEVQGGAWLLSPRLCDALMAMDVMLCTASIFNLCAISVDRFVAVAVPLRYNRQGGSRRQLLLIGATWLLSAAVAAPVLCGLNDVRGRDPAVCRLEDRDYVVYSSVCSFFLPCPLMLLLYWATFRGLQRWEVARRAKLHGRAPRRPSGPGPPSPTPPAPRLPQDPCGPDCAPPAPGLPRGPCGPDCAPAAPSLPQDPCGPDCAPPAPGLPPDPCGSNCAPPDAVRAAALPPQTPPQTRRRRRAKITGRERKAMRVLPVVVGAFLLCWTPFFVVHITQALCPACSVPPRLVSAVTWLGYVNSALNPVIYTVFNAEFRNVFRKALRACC
experiment: Displacement of [3H]-Spiperone from human recombinant dopamine D4 receptor expressed in CHOK1 cells
Reported Ki by item:
endpoint.label: Ki (nM)

1. FC(F)(F)Oc1ccc(CN2CCO[C@H](COc3ccccc3)C2)cc1 : 51
2. COc1ccc2[nH]cc(CN3CCO[C@H](COc4ccccc4)C3)c2c1 : 130
3. Clc1ccc(CN2CCO[C@H](COc3ccccc3)C2)cc1Cl : 27
4. Clc1ccc(CN2CCO[C@H](COc3ccccn3)C2)cc1 : 730
5. COc1cc(CN2CCO[C@H](COc3cccc(F)c3)C2)ccc1Cl : 10.1
6. c1ccc(OC[C@@H]2CN(Cc3n[nH]c4ccccc34)CCO2)cc1 : 18.1
7. Fc1cccc2[nH]cc(CN3CCO[C@H](COc4ccccc4)C3)c12 : 1060
8. Fc1cc(CN2CCO[C@H](COc3ccccc3)C2)ccc1C(F)(F)F : 16.2
9. Cn1ncc2cc(CN3CCO[C@H](COc4ccccc4)C3)ccc21 : 47
10. COc1ccc(CN2CCO[C@H](COc3cccnc3)C2)cc1 : 59
